System: A431
Assay: A431 cell proliferation assay (CellTiter Glo, 72 hours)
Type: cell-based
Settings: Homo sapiens, A-431, 72 h, cell proliferation, A431, 72 hours, Table 2; read-out: A431 IC50
Method: Cell line: Ba/F3 cells with EGFR Δ19del/T790M/C797S mutation gene stably overexpressed named Ba/F3-Δ119del/T90M/C797S, and A431 and Ba/F3-EGFR wild-type cell line. RPMI 1640 and 10% FBS and 1% PS; DMEM and 10% FBS and 1% PS. […] c) Read luminous signal value with PerkinElmer reader, […] The data were analyzed by GraphPad Prism 6.0 software to obtain the fitting curve of compound activity. […]
Provide the reported pIC50 of each item.
Note on units: pIC50 is unitless, being -log10 of a concentration expressed in mol/L.

Specify measured pIC50 for COc1cc(Nc2ncc(Br)c(Nc3ccc(-c4cnn(C)n4)cc3P(C)(C)=O)n2)c(C)cc1N1CCOCC1 [Compound K-015] .
6.02

Recall and state the measured pIC50 for COc1cnn(-c2ccc(Nc3nc(Nc4cc(-c5cnn(C)c5)c(N5CCN(C(C)=O)CC5)cc4OC)ncc3Br)c(P(C)(C)=O)c2)c1 [Compound K-082] .
5.90

Using the record for CCc1cc(Nc2ncc(Cl)c(Nc3ccc(-c4nnc(C)o4)cc3P(C)(C)=O)n2)c(OC)cc1N1CCC(N2CCN(C)CC2)CC1 [Compound 45] , state its measured pIC50.
5.97

Fill in pIC50 for record CCc1cc(Nc2ncc(Br)c(Nc3ccc(-c4ccccc4F)cc3P(C)(C)=O)n2)c(OC)cc1N1CCC(N2CCOCC2)CC1 [Compound K-048]
4.64

Please report the measured pIC50 for COc1cc(Nc2ncc(Br)c(Nc3ccc(-c4cnccn4)cc3P(C)(C)=O)n2)c(C)cc1N1CCOCC1 [Compound K-022]
5.84

Give the reported pIC50 for this molecule. CCc1cc(Nc2ncc(Cl)c(Nc3ccc(-c4ncc(F)cn4)cc3P(C)(C)=O)n2)c(OC)cc1N1CCC(N2CCN(C)CC2)CC1 [Compound 18]
5.90

Give the reported value of pIC50 for this record: CCc1cc(Nc2ncc(Br)c(Nc3ccc(-c4cnc(N(C)C)nc4)cc3P(C)(C)=O)n2)c(OC)cc1N1CCC(N2CCN(C)CC2)CC1 [Compound 74]
5.81

Name the recorded pIC50 of the item COc1cnn(-c2ccc(Nc3nc(Nc4cc(C)c(N5CCC(N6CCCCC6)CC5)cc4OC)ncc3Br)c(P(C)(C)=O)c2)c1 [Compound K-087] in your answer.
5.32

Recall and state the measured pIC50 for COc1cc(Nc2ncc(Br)c(Nc3ccc(-c4nccs4)cc3P(C)(C)=O)n2)c(C)cc1N1CCOCC1 [Compound K-024] .
6.22

Return the recorded pIC50 value; entry: CCc1cnc(-c2ccc(Nc3nc(Nc4cc(CC)c(N5CCC(N6CCN(C)CC6)CC5)cc4OC)ncc3Br)c(P(C)(C)=O)c2)nc1 [Compound 70]
5.20

Please indicate pIC50 recorded for CCc1cc(Nc2ncc(Br)c(Nc3ccc(-c4nc(Cl)cs4)cc3P(C)(C)=O)n2)c(OC)cc1N1CCC(N2CCN(C)CC2)CC1 [Compound K-073]
5.82

----------
Biological target: Ba/F3-EGFR wild-type cell line (Homo sapiens, UniProt P00533)
Sequence (P00533 whole entry, change not shown): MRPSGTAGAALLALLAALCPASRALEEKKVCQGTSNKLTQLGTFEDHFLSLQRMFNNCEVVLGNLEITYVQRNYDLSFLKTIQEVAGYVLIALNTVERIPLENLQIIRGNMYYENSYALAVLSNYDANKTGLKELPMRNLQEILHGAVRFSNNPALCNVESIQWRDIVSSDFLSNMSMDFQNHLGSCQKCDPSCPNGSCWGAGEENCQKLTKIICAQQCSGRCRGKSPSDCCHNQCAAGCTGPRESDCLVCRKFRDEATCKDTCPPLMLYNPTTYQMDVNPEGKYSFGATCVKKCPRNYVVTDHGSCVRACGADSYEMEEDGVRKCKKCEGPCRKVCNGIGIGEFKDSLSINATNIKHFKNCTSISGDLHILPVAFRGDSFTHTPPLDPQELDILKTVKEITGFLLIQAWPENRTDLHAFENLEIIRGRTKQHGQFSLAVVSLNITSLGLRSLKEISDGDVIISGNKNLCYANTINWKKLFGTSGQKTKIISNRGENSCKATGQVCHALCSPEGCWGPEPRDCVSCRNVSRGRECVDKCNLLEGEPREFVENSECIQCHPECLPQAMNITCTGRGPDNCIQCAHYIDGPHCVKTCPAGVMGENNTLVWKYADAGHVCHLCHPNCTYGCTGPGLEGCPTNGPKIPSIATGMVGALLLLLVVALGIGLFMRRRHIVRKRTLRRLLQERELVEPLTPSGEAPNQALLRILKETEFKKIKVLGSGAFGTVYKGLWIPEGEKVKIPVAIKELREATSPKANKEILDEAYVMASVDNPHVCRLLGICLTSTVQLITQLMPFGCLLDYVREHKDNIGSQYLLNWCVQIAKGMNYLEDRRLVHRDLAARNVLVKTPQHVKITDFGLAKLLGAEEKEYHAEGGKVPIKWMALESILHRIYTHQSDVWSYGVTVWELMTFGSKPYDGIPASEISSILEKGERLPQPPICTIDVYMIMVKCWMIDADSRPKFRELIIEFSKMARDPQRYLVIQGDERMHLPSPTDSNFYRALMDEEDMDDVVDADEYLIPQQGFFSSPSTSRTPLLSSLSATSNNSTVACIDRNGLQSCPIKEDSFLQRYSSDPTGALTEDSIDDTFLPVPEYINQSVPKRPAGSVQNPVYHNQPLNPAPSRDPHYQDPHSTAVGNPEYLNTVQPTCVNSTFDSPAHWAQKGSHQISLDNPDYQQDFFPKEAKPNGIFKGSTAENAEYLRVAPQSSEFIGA
Experiment: Ba/F3-EGFR wild-type cell proliferation assay (CellTiter Glo, 72 hours)
Type: cell-based
Details: Table 2, read-out: EGFR WT IC50
measured.endpoint: GI50 (nM)
Unit nM implied. Number only.

State, in one line, measured GI50 of CCc1cc(Nc2ncc(Br)c(Nc3ccc(-c4cnn(C)n4)cc3P(C)(C)=O)n2)c(OC)cc1N1CCC(N2CCN(C)CC2)CC1
181

Give reported GI50 value for CCc1cc(Nc2ncc(Br)c(Nc3ccc(-c4ccccc4)c(C)c3P(C)(C)=O)n2)c(OC)cc1N1CCC(N2CCN(C)CC2)CC1
218

Give GI50 for CCc1cc(Nc2ncc(Br)c(Nc3ccc(-c4ccccc4)cc3P(C)(C)=O)n2)c(OC)cc1N1CCC(N2CCOCC2)CC1
95.6

----------
Molecular target: EGFRΔ19del/T790M/C797S (Homo sapiens, UniProt P00533, T790M/C797S, form not given)
Sequence (P00533 with tags, fused parts or gaps DEL746-750/T790M/C797S, form open): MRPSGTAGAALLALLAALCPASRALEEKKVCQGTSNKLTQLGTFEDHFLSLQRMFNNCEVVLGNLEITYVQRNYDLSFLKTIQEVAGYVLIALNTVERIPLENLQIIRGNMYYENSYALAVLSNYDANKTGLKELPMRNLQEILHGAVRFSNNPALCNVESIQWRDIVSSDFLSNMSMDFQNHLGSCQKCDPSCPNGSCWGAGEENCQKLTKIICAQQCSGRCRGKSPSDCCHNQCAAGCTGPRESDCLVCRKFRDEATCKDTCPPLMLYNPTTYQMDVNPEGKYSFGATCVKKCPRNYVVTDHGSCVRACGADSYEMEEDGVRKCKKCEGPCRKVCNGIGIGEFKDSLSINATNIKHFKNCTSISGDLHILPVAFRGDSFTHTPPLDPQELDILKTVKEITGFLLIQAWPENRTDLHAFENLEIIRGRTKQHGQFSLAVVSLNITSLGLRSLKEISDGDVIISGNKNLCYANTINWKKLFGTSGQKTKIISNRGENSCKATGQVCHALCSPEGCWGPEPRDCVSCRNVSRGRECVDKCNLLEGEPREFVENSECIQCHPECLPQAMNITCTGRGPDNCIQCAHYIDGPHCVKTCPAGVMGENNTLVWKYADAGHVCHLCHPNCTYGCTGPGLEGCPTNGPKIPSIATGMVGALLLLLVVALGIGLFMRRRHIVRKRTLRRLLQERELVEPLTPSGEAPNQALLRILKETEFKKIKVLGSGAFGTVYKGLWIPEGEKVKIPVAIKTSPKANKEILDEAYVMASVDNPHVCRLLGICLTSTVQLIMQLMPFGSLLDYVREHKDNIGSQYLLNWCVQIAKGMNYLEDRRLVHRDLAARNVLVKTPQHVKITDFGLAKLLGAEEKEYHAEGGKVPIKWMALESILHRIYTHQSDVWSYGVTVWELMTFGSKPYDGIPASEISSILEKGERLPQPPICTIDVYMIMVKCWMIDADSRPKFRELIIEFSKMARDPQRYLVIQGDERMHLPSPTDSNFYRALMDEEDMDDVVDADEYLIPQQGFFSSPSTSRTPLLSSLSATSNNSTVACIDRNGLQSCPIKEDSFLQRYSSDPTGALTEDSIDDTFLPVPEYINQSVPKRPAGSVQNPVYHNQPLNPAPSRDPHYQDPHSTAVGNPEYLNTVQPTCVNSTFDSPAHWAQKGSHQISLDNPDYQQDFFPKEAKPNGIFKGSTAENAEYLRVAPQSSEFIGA
Experiment: EGFR Δ19del/T790M/C797S kinase test (mobility variation analysis, Caliper EZ Reader)
Conditions: kinase enzymatic activity, Table 1
Exercise: for every item that follows, state its recorded IC50.
Express the result in pM but write the number alone.

Quote EGFRΔ19del/T790M/C797S (Homo sapiens, UniProt P00533, T790M/C797S, form not given) IC50 for entry CCc1cc(Nc2ncc(Cl)c(Nc3ccc(-c4ncc(OC)cn4)cc3P(C)(C)=O)n2)c(OC)cc1N1CCC(N2CCN(C)CC2)CC1 [Compound 20] .
500

# assay system EGFRΔ19del/T790M/C797S (Homo sapiens, UniProt P00533, T790M/C797S, form not given): give IC50 of CCc1cc(Nc2ncc(Br)c(Nc3ccc(-c4ccccc4C#N)cc3P(C)(C)=O)n2)c(OC)cc1N1CCC(N2CCN(C)CC2)CC1 [Compound 51]
1300

Give IC50 for this entry on EGFRΔ19del/T790M/C797S (Homo sapiens, UniProt P00533, T790M/C797S, form not given): COc1cc(Nc2ncc(Br)c(Nc3ccc(-c4cnn(C)n4)c(F)c3P(C)(C)=O)n2)c(C)cc1N1CC(C)OC(C)C1 (stereo not drawn) [Compound K-037]
800

----------
Target: Ba/F3 cells with EGFR Δ19del/T790M/C797S mutation gene stably overexpressed (Homo sapiens, UniProt P00533, T790M/C797S, cells depend on it, form not given)
Sequence (P00533 with tags, fused parts or gaps DEL746-750/T790M/C797S, form open): as above
Assay: Ba/F3-Δ19del/T790M/C797S cell proliferation assay (CellTiter Glo, 72 hours)
Type: cell-based
Conditions: Table 2, read-out: EGFR Δ19del/T790M/C797S IC50
Protocol: Cell line: Ba/F3 cells with EGFR Δ19del/T790M/C797S mutation gene stably overexpressed named Ba/F3-Δ119del/T90M/C797S, and A431 and Ba/F3-EGFR wild-type cell line. a) Centrifuge the growth cells in logarithmic phase at 1000 rpm for 5 minutes, resuspend the cells in culture medium, and then count the cells; […] c) Read luminous signal value with PerkinElmer reader, […] The data were analyzed by GraphPad Prism 6.0 software to obtain the fitting curve of compound activity. […]
measured.endpoint: GI50 (nM)
Note: unit nM is implicit; provide only the numeric part.

Entry COc1cc(N2CCC(N3CCCCC3)CC2)c(-c2cnn(C)c2)cc1Nc1ncc(Br)c(Nc2ccc(-c3ccccc3)c(C)c2P(C)(C)=O)n1 needs its GI50 filled in; supply it.
1.4

Answer with the recorded GI50 for the compound listed here: CCc1cc(Nc2ncc(Br)c(Nc3ccc(-c4ccccc4C)cc3P(C)(C)=O)n2)c(OC)cc1N1CCC(N2CCOCC2)CC1
38.4

Assign GI50 to the following record: CCc1cc(Nc2ncc(Br)c(Nc3ccc(-c4cnsc4)cc3P(C)(C)=O)n2)c(OC)cc1N1CCC(N2CCN(C)CC2)CC1
11.2

Query GI50 for CCc1cc(Nc2ncc(Cl)c(Nc3ccc(-c4ccc5ocnc5c4)cc3P(C)(C)=O)n2)c(OC)cc1N1CCC(N2CCN(C)CC2)CC1
30

Tell me GI50 reported for COc1cnn(-c2ccc(Nc3nc(Nc4cc(C)c(N5CCN(C6CCCC6)CC5)cc4OC)ncc3Br)c(P(C)(C)=O)c2)c1
9.5

Provide measured GI50 value, entry: CCc1cc(Nc2ncc(Cl)c(Nc3ccc(-c4cnn5c4OCCC5)cc3P(C)(C)=O)n2)c(OC)cc1N1CCC(N2CCN(C)CC2)CC1
46.2

----------
Target: EGFR WT (Homo sapiens)
Sequence (P00533 25-1210): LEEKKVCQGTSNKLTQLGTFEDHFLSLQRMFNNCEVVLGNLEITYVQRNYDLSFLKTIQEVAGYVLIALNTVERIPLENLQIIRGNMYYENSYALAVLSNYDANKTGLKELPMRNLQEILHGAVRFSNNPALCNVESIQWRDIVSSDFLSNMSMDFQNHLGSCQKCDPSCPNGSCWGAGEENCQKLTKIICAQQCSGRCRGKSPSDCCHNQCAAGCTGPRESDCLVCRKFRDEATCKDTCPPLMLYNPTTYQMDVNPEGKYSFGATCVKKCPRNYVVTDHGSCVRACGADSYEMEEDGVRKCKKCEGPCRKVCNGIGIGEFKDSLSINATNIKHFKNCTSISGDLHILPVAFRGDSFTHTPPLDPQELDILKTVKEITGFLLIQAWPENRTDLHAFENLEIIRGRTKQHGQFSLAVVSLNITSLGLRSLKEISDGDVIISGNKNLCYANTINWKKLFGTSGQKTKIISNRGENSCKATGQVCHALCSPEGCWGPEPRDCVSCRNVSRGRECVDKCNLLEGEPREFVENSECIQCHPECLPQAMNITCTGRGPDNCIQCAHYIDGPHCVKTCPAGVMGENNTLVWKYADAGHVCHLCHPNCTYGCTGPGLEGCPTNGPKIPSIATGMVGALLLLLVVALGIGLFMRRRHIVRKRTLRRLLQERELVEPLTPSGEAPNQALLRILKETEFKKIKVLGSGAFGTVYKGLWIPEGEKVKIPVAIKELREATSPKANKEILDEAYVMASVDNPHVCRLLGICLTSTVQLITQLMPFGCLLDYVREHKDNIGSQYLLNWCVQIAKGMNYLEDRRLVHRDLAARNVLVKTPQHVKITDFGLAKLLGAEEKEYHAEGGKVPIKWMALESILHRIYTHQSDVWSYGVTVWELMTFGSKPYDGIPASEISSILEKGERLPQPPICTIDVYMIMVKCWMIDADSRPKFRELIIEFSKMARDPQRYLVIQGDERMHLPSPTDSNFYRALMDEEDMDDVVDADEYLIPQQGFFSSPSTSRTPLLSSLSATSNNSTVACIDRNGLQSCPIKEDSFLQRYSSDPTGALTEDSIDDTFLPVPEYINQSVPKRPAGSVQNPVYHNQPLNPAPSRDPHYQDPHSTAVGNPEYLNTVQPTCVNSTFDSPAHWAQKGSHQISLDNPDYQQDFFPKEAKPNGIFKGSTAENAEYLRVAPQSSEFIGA
# label = YES if IC50 < 200 nM else NO

Given CCc1cc(Nc2ncc(Br)c(Nc3ccc(-c4cscn4)cc3P(C)(C)=O)n2)c(OC)cc1N1CCC(N2CCN(C)CC2)CC1 , is recorded IC50 strictly lower than 200 nM?
YES

State whether 200 nM exceeds IC50 recorded for COc1cnn(-c2ccc(Nc3nc(Nc4cc(C)c(N5CCN(C6CCCC6)CC5)cc4OC)ncc3Br)c(P(C)(C)=O)c2)c1 .
YES

I'd appreciate it if you could check whether CCc1cc(Nc2ncc(Cl)c(Nc3ccc(-c4cnccn4)cc3P(C)(C)=O)n2)c(OC)cc1N1CCC(N2CCN(C)CC2)CC1 has IC50 smaller than 200 nM.
YES

Item CCc1cc(Nc2ncc(Br)c(Nc3ccc(-c4ncnn4C)cc3P(C)(C)=O)n2)c(OC)cc1N1CCC(N2CCN(C)CC2)CC1 : IC50 beneath 200 nM, strictly?
NO

Hello, I'm reviewing records and need to know if IC50 of CCc1cc(Nc2ncc(Br)c(Nc3ccc(-c4cnc(N(C)C)cn4)cc3P(C)(C)=O)n2)c(OC)cc1N1CCC(N2CCN(C)CC2)CC1 is below 200 nM. Could you check?
YES

Could you please tell me whether IC50 recorded for C#Cc1cnc(-c2ccc(Nc3nc(Nc4cc(C)c(N5CCC(N6CCN(C)CC6)CC5)cc4OC)ncc3Br)c(P(C)(C)=O)c2)cn1 is less than 200 nM?
YES

Every entry's value here was drawn from patent US20220402948A1.
